biological target: T1, monovalent hVISTA-ECD (human VISTA extracellular domain with His tail) (human, UniProt Q9H7M9 33-193); assay: SPR, pH 7.4
T1 construct: analyte flowed over captured antibody; also called huVISTA-His
T1 sequence (Q9H7M9 other isoform, or with tags, fused parts or gaps limits assumed): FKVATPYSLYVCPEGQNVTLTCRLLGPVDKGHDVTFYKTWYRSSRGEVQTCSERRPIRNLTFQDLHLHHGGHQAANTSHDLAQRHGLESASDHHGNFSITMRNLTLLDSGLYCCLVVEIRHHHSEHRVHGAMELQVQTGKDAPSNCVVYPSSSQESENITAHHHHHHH
Metric: koff (s⁻¹)
Response body: numeric value in s⁻¹, unit text excluded.

Consider the worked cases shown below.
Binder: P1-064484 (41F11_VH_L96E) (antibody, V domains shown, Kabat positions; also called P1-064484-1) VH: QVQLVESGGGLVKPGGSLRLSCAASGFTFSDYYMSWIRQAPGKGLEWVSYISNSGSPIYYADSVKGRFTISRDNAKNSLYLQMNSLRAEDTAVYYCARDEPGWYFDLWGRGTLVTVSS VL: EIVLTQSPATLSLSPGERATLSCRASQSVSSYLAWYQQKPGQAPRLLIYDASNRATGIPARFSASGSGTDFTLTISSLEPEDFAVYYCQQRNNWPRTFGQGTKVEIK
Unit Name: s⁻¹
koff: 0.00353

Binder: P1-065332 (41F11_VH_T28P/Y50W/S55E/A60H/Y100E VK_A64G) (antibody, V domains shown, Kabat positions; also called P1-065332-1) VH: QVQLVESGGGLVKPGGSLRLSCAASGFPFSDYYMSWIRQAPGKGLEWVSWISNSGEPIYYHDSVKGRFTISRDNAKNSLYLQMNSLRAEDTAVYYCARDLPGWEFDLWGRGTLVTVSS VL: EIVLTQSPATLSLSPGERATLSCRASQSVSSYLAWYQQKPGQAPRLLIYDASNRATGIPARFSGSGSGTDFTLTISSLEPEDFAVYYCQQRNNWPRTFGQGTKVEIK
Unit Name: s⁻¹
koff: 0.000236

Binder: P1-064502 (41F11_Vk_R96YA64G) (antibody, V domains shown, also called P1-064502-1) VH: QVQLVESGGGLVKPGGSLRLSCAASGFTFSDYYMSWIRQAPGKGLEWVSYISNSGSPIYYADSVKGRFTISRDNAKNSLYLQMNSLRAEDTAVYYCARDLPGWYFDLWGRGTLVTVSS VL: EIVLTQSPATLSLSPGERATLSCRASQSVSSYLAWYQQKPGQAPRLLIYDASNRATGIPARFSGSGSGTDFTLTISSLEPEDFAVYYCQQRNNWPYTFGQGTKVEIK
Unit Name: s⁻¹
koff: 0.0123

From here, focus on the item given below.
Documented koff of P1-064478 (41F11_VH_Y50E) (antibody, V domains shown, Kabat positions; also called P1-064478-1) VH: QVQLVESGGGLVKPGGSLRLSCAASGFTFSDYYMSWIRQAPGKGLEWVSEISNSGSPIYYADSVKGRFTISRDNAKNSLYLQMNSLRAEDTAVYYCARDLPGWYFDLWGRGTLVTVSS VL: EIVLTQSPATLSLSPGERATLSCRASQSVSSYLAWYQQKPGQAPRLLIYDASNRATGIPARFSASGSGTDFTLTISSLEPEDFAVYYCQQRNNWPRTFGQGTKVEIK : 0.000381

Where do the numbers come from? From patent US20220073617A1.
